The origin of these recorded values is PubChem BioAssay (NCI).

System: MDA-MB-468 breast
Assay: NCI-60 one-dose screen, 48 h
Conditions: 10 µM unless noted
Description: Growth inhibition of the MDA-MB-468 human Breast tumor cell line is measured as a screen for anti-cancer activity. Cells are grown in 96 well plates and exposed to the test compound for 48 hours. Compounds are tested at a single concentration, which is 10^-5 M for most compounds. The reported endpoint is percent growth (GI% or GIPRCNT), where numbers from 0 - 100% represent growth inhibition, and numbers from -100% - 0 represent cell death. […]
The panel holds about 83,000 compounds, 20% with a hit somewhere; the sample as a whole holds those more often. The source made the active and inactive calls. The calls were made as follows: active = growth percent below 10; inactive = the rest.
Choose one outcome from this list and give only that: true for active, false for inactive

# compound, label_class
rows = [
    ("CN(C)CCOc1ccc2c(c1)C(=O)/C(=C\\c1ncc([N+](=O)[O-])n1C)C2", "true"),
    ("CCc1c(C)c2cc3c(c(C)c2oc1=O)OCC(=O)N3", "false"),
    ("COc1ccc(-c2ccccc2)cc1-c1c(Nc2cc(Cl)cc(Cl)c2O)c(=O)c1=O", "true"),
    ("COc1ccc(C2CC(=O)c3c(nc4ccc(Cl)cc4c3N)C2)cc1 (stereo unspecified)", "false"),
    ("O=C(NO)c1ccc(-n2nc(-c3ccccc3)c3ccccc32)cc1", "false"),
]

Recorded test outcome, item `O=C1/C(=C/c2ccc(O)cc2)COc2ccc(O)c(O)c21`
true

Recorded test outcome, item `COc1ccc(-c2csc(N/N=C/c3c(-c4ccc(S(C)(=O)=O)cc4)nc4ccccn34)n2)cc1`
false

Recorded test outcome, item `Cc1nc(Nc2ccc(Cl)cc2)c2cnn(-c3ccccc3)c2n1`
false

Recorded test outcome, item `Cc1ccc(S(=O)(=O)N/N=C/C2(c3ccccc3)CC2)cc1`
false

Recorded test outcome, item `N#Cc1cnc2ccc(-c3cnc4n[nH]nc4c3)cc2c1N1CCc2cc(F)c(Cl)cc21`
true

Recorded test outcome, item `COc1ccc(OC2=CC(=O)c3ccc(C)nc3C2=O)cc1`
false

Recorded test outcome, item `FC(F)(F)c1cc(NC2=NCCN=C(Nc3cc(C(F)(F)F)cc(C(F)(F)F)c3)SS2)cc(C(F)(F)F)c1`
false

Recorded test outcome, item `C#C[C@]1(O)CC[C@H]2[C@@H]3CC=C4c5nc(N)sc5CC[C@]4(C)[C@H]3CC[C@@]21C`
false

Recorded test outcome, item `COc1cc(-c2nn(-c3ccc(C)cc3)cc2C(=O)O)ccc1O`
false

Recorded test outcome, item `C=C1C(=O)O[C@H]2[C@H]1CC/C(COC(=O)C(=O)c1c[nH]c3ccc(OC)cc13)=C\CC[C@@]1(C)O[C@@H]21`
true

Recorded test outcome, item `CCN(Cc1ccc(CN(CC)C(=O)C(Cl)(Cl)Cl)cc1)C(=O)C(Cl)(Cl)Cl`
false

Recorded test outcome, item `Cc1c(C(=O)Nc2ccccc2F)sc2c(=O)[nH]cnc12`
false

Recorded test outcome, item `COc1ccc2cc(-c3ccc(C(=O)NN)c(C)n3)ccc2c1`
false

Recorded test outcome, item CCN1C(=O)N(CC)C2C1NC(=S)N2/N=C/C=C/c1ccccc1 (stereo unspecified)
true

Recorded test outcome, item `O=c1[nH]n(-c2ccccc2)c(=O)cc1Cl`
false

Recorded test outcome, item `Cc1ccc(C)n1/C=C/n1c(C)ccc1C`
false

* * *

Tested on: MDA-MB-468 breast
Assay: NCI-60 one-dose screen, 48 h
Conditions: 10 µM unless noted
Compounds without any hit were thinned out: in the full panel of roughly 83,000, 20% have a hit. The source made the active and inactive calls. The calls were made as follows: active = growth percent below 10; inactive = the rest.
Choose one outcome from this list and give only that: true = active, false = inactive

# molecule, label_class
data = [
    ("COc1ccc(OC)c(/C=C/c2nnc(Nc3ccc(Cl)cc3)o2)c1", "false"),
    ("O=C(CCc1nnc2sc(-c3ccccc3)nn12)c1nc2ccccc2[nH]1", "false"),
    ("CN(C)CCC(=O)c1c[nH]c2ccccc12", "false"),
]

Recorded test outcome, item `COCC(=O)Oc1cc(-c2ccc(C)cc2C)c(OC(=O)COC)c(-c2ccc(C)cc2C)c1`
true

Recorded test outcome, item `O=C(N/N=C/c1ccccc1O)C(=O)Nc1ccc(F)cc1`
false

Recorded test outcome, item COC(c1ccccc1)C(Br)C(=O)c1ccccc1 (stereo unspecified)
false

Recorded test outcome, item `Cc1nc(N)sc1C(=O)NCCO`
false

Recorded test outcome, item O=C(Nc1ccc(Nc2ncccn2)cc1)NC1C=c2ccccc2=CC1 (stereo unspecified)
false

Recorded test outcome, item `O=C(CCc1nnc(Cn2cnc3nc[nH]c3c2=O)o1)c1nc2ncccc2[nH]1`
false
